Target: Xanthine dehydrogenase/oxidase (Rattus norvegicus, UniProt P22985)
Sequence (P22985 whole entry): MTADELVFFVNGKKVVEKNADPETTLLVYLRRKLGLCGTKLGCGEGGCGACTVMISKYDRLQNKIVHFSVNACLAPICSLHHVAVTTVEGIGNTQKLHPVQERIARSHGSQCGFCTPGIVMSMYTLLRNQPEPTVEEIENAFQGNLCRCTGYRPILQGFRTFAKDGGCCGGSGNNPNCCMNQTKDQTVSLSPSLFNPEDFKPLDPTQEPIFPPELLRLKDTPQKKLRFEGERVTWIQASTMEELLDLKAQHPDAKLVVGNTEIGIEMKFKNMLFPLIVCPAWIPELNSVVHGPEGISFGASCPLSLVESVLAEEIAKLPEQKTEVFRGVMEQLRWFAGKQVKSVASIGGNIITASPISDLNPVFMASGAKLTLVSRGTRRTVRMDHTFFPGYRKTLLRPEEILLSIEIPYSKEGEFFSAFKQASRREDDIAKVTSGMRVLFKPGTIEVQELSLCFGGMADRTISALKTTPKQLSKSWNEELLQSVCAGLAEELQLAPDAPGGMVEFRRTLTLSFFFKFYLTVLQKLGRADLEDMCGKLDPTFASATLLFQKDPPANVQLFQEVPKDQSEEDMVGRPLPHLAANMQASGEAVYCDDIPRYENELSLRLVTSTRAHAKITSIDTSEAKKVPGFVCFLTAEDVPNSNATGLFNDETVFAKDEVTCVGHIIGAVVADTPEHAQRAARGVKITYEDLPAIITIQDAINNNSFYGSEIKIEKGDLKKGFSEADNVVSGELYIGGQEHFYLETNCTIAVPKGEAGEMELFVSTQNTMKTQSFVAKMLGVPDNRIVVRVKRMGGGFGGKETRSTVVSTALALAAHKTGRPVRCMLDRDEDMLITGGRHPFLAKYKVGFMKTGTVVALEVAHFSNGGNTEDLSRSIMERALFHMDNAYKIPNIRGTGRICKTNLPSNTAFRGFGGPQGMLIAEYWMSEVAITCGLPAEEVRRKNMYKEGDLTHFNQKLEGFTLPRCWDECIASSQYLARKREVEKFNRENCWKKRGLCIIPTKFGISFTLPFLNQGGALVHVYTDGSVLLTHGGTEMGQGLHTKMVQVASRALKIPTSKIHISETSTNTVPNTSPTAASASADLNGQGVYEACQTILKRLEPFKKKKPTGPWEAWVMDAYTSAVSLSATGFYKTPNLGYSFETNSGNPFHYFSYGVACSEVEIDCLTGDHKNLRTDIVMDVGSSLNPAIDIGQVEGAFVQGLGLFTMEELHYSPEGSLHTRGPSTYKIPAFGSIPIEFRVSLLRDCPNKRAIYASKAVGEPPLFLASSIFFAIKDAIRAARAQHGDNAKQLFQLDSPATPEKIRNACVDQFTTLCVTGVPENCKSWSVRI
Assay: Inhibition of Wistar albino rat xanthine oxidase isolated from liver using xanthine as substrate incubated for 15 mins prior to substrate addition by spectrophotometric analysis
// reported IC50 per item
Measured Metric: IC50

NS(=O)(=O)c1sc(Cl)cc1C1=NN(c2nc(-c3ccc(Cl)cc3)cs2)C(c2ccc(F)cc2)C1 (stereo not drawn)	> 50 µM
Fc1ccc(C2CC(c3cc(Cl)sc3Cl)=NN2c2nc(-c3ccc(Cl)cc3)cs2)cc1 (stereo not drawn)	> 50 µM
Fc1ccc(C2CC(c3cc(Cl)sc3SCc3ccccc3)=NN2c2nc(-c3ccc(Cl)cc3)cs2)cc1 (stereo not drawn)	> 50 µM
